Reference source: ChEMBL document CHEMBL4739717

test.target: Dual specificity protein kinase CLK3 (Homo sapiens, UniProt P49761)
Sequence (P49761 whole entry): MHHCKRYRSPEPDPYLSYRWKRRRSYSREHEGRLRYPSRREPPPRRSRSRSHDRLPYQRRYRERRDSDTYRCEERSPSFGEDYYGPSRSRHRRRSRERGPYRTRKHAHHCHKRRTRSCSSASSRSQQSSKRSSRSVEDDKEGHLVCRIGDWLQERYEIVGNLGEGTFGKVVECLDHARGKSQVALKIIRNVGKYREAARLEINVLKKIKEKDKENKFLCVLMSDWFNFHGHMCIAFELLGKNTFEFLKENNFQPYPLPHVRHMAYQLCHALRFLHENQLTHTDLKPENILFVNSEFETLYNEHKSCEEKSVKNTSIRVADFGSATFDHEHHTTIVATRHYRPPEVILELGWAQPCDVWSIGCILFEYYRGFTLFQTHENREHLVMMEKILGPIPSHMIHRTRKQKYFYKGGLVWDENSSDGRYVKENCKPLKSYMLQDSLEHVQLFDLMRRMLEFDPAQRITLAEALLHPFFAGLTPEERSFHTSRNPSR
procedure.text: Inhibition of recombinant CLK3 (unknown origin) using Ser/Thr 18 peptide as substrate incubated for 1 hr in presence of ATP by FRET assay
measure: EC50 (µM)

[a] Cc1n[nH]c2ccc(-c3cncc(O[C@H]4CCNCC4(F)F)n3)cc12
[b] Fc1cccc(-c2ccnc3[nH]c(-c4n[nH]c5ccc(-c6cncc(CN7CCC(F)(F)C7)c6)cc45)nc23)c1
[c] Cc1ccc(C(=O)Nc2c[nH]nc2C(=O)Nc2ccc(OCCN3CCCC3)nc2)cn1
[d] CN1CCCCN(C)c2nccc3[nH]c(nc23)-c2c[nH]c3ccc(cc23)-c2cncc(c2)C1
// rank above by EC50: first = highest number Kindly provide the labels arranged according to the requested ordering.
c, a, b, d
